Target: human ROR2 (human, UniProt Q01974 34-403, limits assumed)
Sequence (Q01974 34-403 limits assumed): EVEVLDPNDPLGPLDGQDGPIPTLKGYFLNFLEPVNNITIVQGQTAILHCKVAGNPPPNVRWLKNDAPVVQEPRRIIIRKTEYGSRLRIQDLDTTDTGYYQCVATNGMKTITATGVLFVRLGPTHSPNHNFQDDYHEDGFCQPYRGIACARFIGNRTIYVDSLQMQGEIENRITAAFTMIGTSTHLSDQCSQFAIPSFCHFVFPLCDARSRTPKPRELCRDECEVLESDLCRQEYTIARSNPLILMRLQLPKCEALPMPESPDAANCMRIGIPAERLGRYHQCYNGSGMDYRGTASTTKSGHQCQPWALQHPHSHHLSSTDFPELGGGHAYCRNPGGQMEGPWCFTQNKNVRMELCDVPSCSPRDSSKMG
Assay: SPR
PARAMETER_MEASURED: pKd
Worth noting: pKd values are minus log10 of concentrations stated in mol/L.

grafted humanized 6E6: VH3-11*03 (IMGT) + VK1-12*01 (extended) (antibody, V domains shown, expressed as IgG) VH: QVQLLESGGGLVKPGGSLRLSCAASGFTFSNYGMSWIRQAPGKGLEWVSYISSGGGYTNYADSVKGRFTISRDNAKNSLYLQMNSLRAEDTAVYYCARHPRDFSYAMDYWGQGTTVTVSS VL: DIQMTQSPSSVSASVGDRVTITCKASQDVGHYVAWYQQKPGKAPKLLIYWASTRHTGVPSRFSGSGSGTDFTLTISSLQPEDFATYYCQQYNIYPWTFGQGTKVEIK :: 6.79

Q: What measured pKd goes with grafted humanized 6E6: VH3-11*03 (IMGT) + VK3-15*01 (IMGT) (antibody, V domains shown, expressed as IgG) VH: QVQLLESGGGLVKPGGSLRLSCAASGFTFSNYGMSWIRQAPGKGLEWVSYISSGGGYTNYADSVKGRFTISRDNAKNSLYLQMNSLRAEDTAVYYCARHPRDFSYAMDYWGQGTTVTVSS VL: EIVMTQSPATLSVSPGERATLSCRASQDVGHYLAWYQQKPGQAPRLLIYWASTRATGIPARFSGSGSGTEFTLTISSLQSEDFAVYYCQQYNIYPWTFGQGTKVEIK ?
Result: 7.19

Q: Give its pKd value. Item: grafted humanized 6E6: VH3-11*03 (extended) + VK1-8*01 (IMGT) (antibody, V domains shown, expressed as IgG) VH: QVQLLESGGGLVKPGGSLRLSCAASGFTFSNYGMSWIRQAPGKGLEWVSTISSGGGYTHYVDSVKGRFTISRDNAKNSLYLQMNSLRAEDTAVYYCARHPRDFSYAMDYWGQGTTVTVSS VL: AIRMTQSPSSFSASTGDRVTITCRASQDVGHYLAWYQQKPGKAPKLLIYWASTLQSGVPSRFSGSGSGTDFTLTISCLQSEDFATYYCQQYNIYPWTFGQGTKVEIK
Result: 8.96

Q: Looking for the measured pKd of grafted humanized 6E6: VH3-11*03 (IMGT) + VK1-12*01 (IMGT) (antibody, V domains shown, expressed as IgG) VH: QVQLLESGGGLVKPGGSLRLSCAASGFTFSNYGMSWIRQAPGKGLEWVSYISSGGGYTNYADSVKGRFTISRDNAKNSLYLQMNSLRAEDTAVYYCARHPRDFSYAMDYWGQGTTVTVSS VL: DIQMTQSPSSVSASVGDRVTITCRASQDVGHYLAWYQQKPGKAPKLLIYWASSLQSGVPSRFSGSGSGTDFTLTISSLQPEDFATYYCQQYNIYPWTFGQGTKVEIK , can you help?
Result: 6.75
